For each entry below, report its Activity value.
Test system: Rattus norvegicus
Procedure details: Analgesic activity inRattus norvegicus albino (rat) assessed as reduction of minimum electric shock-induced pain at 100 mg/kg after 2 hr relative to control
Format: functional
Set-up: scale not given: the % may be the effect or the level left
Express the reported value numerically, then name its unit.

Sample records with Activity:
Cc1c(/N=C/c2nc3ccc(I)cc3c(=O)n2-c2ccc(Cl)cc2)c(=O)n(-c2ccccc2)n1C    54.2%
CC(=O)c1c(-c2nc3ccc(I)cc3c(=O)n2-c2ccc(Cl)cc2)[nH][nH]c1=O    61.9%
CCOc1ccccc1/N=C/c1nc2ccc(I)cc2c(=O)n1-c1ccc(F)cc1    56.1%
O=c1c2cc(I)ccc2nc(C2CC(c3ccccc3)=NN2)n1-c1ccc(Cl)cc1 (stereo not given)    59.2%

# map each compound to its Activity
1. O=C(/C=C/c1nc2ccc(I)cc2c(=O)n1-c1ccc(F)cc1)c1ccccc1
2. O=C1NC(=S)S/C1=C/c1nc2ccc(I)cc2c(=O)n1-c1ccc(F)cc1
3. Cc1c(/N=C/c2nc3ccc(I)cc3c(=O)n2-c2ccc(F)cc2)c(=O)n(-c2ccccc2)n1C
4. CCOc1ccccc1-n1c(N)c(C#N)c(-c2nc3ccc(I)cc3c(=O)n2-c2ccc(F)cc2)c(C#N)c1=O

Result:
1: 54.1%; 2: 61.3%; 3: 65.6%; 4: 53.1%

# map each compound to its Activity
1. O=C1OC(c2ccccc2)=N/C1=C/c1nc2ccc(I)cc2c(=O)n1-c1ccc(Cl)cc1
2. O=C(N/N=C/c1nc2ccc(I)cc2c(=O)n1-c1ccc(F)cc1)c1ccncc1

Result:
1. 63.3%
2. 64.3%
